target: UniProtKB Q15858; experiment: FLIPR sodium dye assay (CoroNa Green AM Na+ dye, primary fluorescence assay) in recombinant Nav1.7/HEK293 cells; type: cell-based; details: Table 6; CoroNa Green AM Na+ dye primary fluorescence assay; read-out: Nav1.7 Activity (μM) FLIPR assay IC50
Sequence (Q15858 1-1977 isoform Q15858-3): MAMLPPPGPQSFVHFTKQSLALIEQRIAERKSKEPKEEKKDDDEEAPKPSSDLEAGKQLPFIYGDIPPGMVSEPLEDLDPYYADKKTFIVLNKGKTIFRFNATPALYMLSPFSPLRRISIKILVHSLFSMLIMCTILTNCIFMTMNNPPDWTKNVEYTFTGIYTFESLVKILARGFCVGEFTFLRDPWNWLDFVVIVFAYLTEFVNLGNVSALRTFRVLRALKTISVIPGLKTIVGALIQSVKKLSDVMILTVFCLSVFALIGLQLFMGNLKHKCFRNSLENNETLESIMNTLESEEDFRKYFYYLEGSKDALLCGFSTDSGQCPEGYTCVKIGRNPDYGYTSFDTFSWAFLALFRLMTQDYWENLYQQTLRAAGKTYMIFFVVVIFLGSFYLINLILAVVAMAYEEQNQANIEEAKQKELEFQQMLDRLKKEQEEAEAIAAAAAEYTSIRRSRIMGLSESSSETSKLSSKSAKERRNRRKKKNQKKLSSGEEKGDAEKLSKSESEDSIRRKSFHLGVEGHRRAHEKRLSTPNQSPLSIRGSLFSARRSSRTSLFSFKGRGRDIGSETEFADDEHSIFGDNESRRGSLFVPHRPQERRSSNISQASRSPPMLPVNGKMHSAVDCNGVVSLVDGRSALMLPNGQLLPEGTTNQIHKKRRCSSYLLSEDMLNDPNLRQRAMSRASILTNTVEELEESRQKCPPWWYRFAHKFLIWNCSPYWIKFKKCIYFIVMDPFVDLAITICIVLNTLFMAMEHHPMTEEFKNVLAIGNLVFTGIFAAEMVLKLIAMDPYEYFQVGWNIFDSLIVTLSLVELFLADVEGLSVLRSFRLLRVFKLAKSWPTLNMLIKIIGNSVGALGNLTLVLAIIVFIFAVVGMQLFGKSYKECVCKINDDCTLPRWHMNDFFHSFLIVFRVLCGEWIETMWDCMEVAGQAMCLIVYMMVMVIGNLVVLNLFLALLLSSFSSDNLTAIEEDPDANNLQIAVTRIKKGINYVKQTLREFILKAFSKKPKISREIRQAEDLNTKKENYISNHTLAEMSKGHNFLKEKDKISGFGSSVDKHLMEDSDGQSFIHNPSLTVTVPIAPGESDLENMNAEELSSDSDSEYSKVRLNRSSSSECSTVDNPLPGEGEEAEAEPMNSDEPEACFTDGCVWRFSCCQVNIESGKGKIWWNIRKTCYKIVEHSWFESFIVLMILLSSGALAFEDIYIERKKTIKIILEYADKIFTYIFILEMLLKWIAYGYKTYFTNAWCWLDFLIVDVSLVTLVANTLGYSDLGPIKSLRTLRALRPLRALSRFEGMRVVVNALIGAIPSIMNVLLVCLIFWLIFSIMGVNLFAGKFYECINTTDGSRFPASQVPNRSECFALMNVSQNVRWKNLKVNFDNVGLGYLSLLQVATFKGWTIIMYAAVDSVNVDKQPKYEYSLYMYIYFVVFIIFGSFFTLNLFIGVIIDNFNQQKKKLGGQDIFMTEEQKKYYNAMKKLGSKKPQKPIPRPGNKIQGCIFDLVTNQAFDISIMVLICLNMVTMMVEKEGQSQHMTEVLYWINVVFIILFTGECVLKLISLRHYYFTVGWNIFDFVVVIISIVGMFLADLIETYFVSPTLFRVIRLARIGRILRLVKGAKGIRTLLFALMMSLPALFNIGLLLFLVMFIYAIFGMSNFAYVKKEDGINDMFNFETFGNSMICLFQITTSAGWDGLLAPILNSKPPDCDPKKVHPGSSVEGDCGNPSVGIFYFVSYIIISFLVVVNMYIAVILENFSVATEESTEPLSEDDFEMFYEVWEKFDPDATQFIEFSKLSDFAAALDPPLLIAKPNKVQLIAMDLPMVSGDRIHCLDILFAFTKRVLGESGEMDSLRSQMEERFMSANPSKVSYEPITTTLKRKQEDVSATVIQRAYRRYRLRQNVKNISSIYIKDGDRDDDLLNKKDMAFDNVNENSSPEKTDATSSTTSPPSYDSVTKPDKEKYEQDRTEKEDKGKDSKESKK
recordedMetric: IC50 (µM)

INSERT INTO assay_data (compound, recordedmetric, unittext, numericvalue) VALUES
  ('NC(=O)c1cc(N[C@H]2CCNC2=O)nc(-c2ccc(Oc3cnc(OCC(F)(F)F)cn3)cc2)n1 [compound 151]', 'IC50', 'µM', 0.35),
  ('NC(=O)c1cc(N[C@H]2CCNC2=O)nc(-c2ccc(Oc3ccc(C(F)(F)F)cc3CN3CCCC3)cc2)n1 [compound 169]', 'IC50', 'µM', 0.74);

(A) C[C@H](Oc1cc(C(N)=O)nc(-c2ccc(Oc3ccc4c(c3)CCC4)cc2)n1)C(N)=O [compound 129]
(B) NC(=O)c1cc(O[C@H]2CCN(C[C@H](O)CO)C2=O)nc(-c2ccc(Oc3ccc(F)cc3)cc2)n1 [compound 123]
(C) CN1CC=C(c2cc(C(F)(F)F)ccc2Oc2ccc(-c3nc(N[C@H]4CCNC4=O)cc(C(N)=O)n3)cc2)CC1 [Cpd No. 207]
List from greatest to least IC50. Ranked list of labels, please, in the requested order.
C, B, A
(C: 4.7 µM, B: 0.67 µM, A: 0.26 µM)
